Reported cell painting activity score by item:
System: U-2 OS
experimental protocol: cell painting activity score (Mahalanobis distance from DMSO wells); higher = stronger morphological phenotype
setup conditions: 5 µM; 24 h
I'd appreciate a reply containing only the number, no unit.

smi	tested system	cell painting activity score
CN1CCN(CCOc2cc(OC3CCOCC3)c3c(Nc4c(Cl)ccc5c4OCO5)ncnc3c2)CC1	U-2 OS	9.8
C[C@@H]1O[C@@H](O[C@H]2[C@H](O[C@H]3CC[C@@]4(C)[C@@H](CC[C@]5(C)[C@@H]4CC=C4[C@@H]6CC(C)(C)CC[C@]6(C(=O)O)CC[C@]45C)[C@]3(C)CO)OC[C@H](O[C@@H]3O[C@H](CO)[C@@H](O)[C@H](O)[C@H]3O)[C@@H]2O)[C@H](O)[C@H](O)[C@H]1O	U-2 OS	31.3
O=C1CCC(=O)N1c1ccc(O)cc1	U-2 OS	3.52

Here is another compound to look at.
## Task Respond only with cell painting activity score recorded for "O=C1C=C(Cl)C(=O)c2ccccc21"
## Result 17.9

----------
Test system: U-2 OS
experimental protocol: cell painting activity score (Mahalanobis distance from DMSO wells); higher = stronger morphological phenotype
setup conditions: 5 µM; 24 h
Reported cell painting activity score by item:
I'd appreciate a reply containing only the number, no unit.

## Task Respond only with cell painting activity score recorded for "C=C(C)[C@H]1Cc2c(ccc3c2O[C@@H]2COc4cc(OC)c(OC)cc4[C@@H]2C3=O)O1"
## Result 15.6

## Task Respond only with cell painting activity score recorded for "CNC(=O)Nc1ccc2c(c1)[C@@]1(CC2)OC(=O)N(CC(=O)N(Cc2ccc(F)cc2)[C@@H](C)C(F)(F)F)C1=O"
## Result 5.02

## Task Respond only with cell painting activity score recorded for "C=C1C(=O)O[C@H](CCC)[C@H]1C(=O)O"
## Result 4.83

## Task Respond only with cell painting activity score recorded for "COC(=O)[C@]1(C)CC[C@]2(C)CC[C@]3(C)C4=CC=C5C(=CC(=O)C(O)=C5C)[C@]4(C)CC[C@@]3(C)[C@@H]2C1"
## Result 33.4

## Task Respond only with cell painting activity score recorded for "N#CC(C#N)=NNc1cccc(Cl)c1"
## Result 9.31

## Task Respond only with cell painting activity score recorded for "Nc1ncn([C@H]2C[C@H](O)[C@@H](CO)O2)c(=O)n1"
## Result 6.61

## Task Respond only with cell painting activity score recorded for "O=C(Nc1ccc([N+](=O)[O-])cc1Cl)c1cc(Cl)ccc1O"
## Result 16

## Task Respond only with cell painting activity score recorded for CC1=C(CO)C(=O)O[C@H](C(C)[C@H]2CC[C@@H]3[C@H]4C[C@H]5O[C@@]56[C@@H](O)C=CC(=O)[C@@]6(C)C4CC[C@@]23C)C1 (stereo not given in full)
## Result 17.6

## Task Respond only with cell painting activity score recorded for "O=C(CCCCCCC(=O)Nc1ccccc1)NO"
## Result 12

## Task Respond only with cell painting activity score recorded for "COS(=O)(=O)O.C[n+]1c2ccccc2nc2ccccc21"
## Result 14.3

## Task Respond only with cell painting activity score recorded for "COc1cc(=O)oc(/C=C/C=C/C=C/C(C)=C/[C@]2(C)O[C@H](C)[C@](C)(O)[C@H]2O)c1C"
## Result 11.5

## Task Respond only with cell painting activity score recorded for "CC[C@@H]1/C=C/C=C/C[C@H](C)[C@@H](O)[C@](C)(O)C(=O)[C@H](C)[C@@H](O)[C@H](C)C(=O)[C@H](C)[C@@H](O)[C@H](C)/C=C/C(=O)O[C@H]2[C@@H](C)[C@@H](CC1)O[C@@]1(CC[C@@H](C)[C@@H](C[C@H](C)O)O1)[C@@H]2C"
## Result 13.4

## Task Respond only with cell painting activity score recorded for "CCOC(=O)C1=C(C)NC(=S)N[C@@H]1c1cccc(O)c1"
## Result 5.58

## Task Respond only with cell painting activity score recorded for "C=CC(=O)Nc1ccc(CN2C(=O)N(c3cc(OC)cc(OC)c3)Cc3cnc(Nc4ccc(N5CCN(C)CC5)cc4)nc32)cc1"
## Result 10.2

## Task Respond only with cell painting activity score recorded for "CC(=O)c1c(O)c(C)c(O)c(Cc2c(O)c3c(c(C(=O)C=Cc4ccccc4)c2O)OC(C)(C)C=C3)c1O"
## Result 3.79

## Task Respond only with cell painting activity score recorded for O=C1CC(Sc2nnnn2-c2ccccc2)C(=O)N1c1ccc([N+](=O)[O-])cc1 (stereo not given)
## Result 6.88

## Task Respond only with cell painting activity score recorded for "COc1cc([C@@H]2c3cc4c(cc3[C@H](O)[C@H]3COC(=O)[C@H]23)OCO4)cc(OC)c1OC"
## Result 21

## Task Respond only with cell painting activity score recorded for "CCOc1cc2ncc(C#N)c(Nc3ccc(OCc4ccccn4)c(Cl)c3)c2cc1NC(=O)/C=C/CN(C)C"
## Result 10.9

## Task Respond only with cell painting activity score recorded for "C[C@@H]1O[C@@H](O[C@H]2[C@H](O[C@H]3CC[C@@]4(C)[C@@H](CC[C@]5(C)[C@@H]4CC=C4[C@@H]6CC(C)(C)CC[C@]6(C(=O)O[C@@H]6O[C@H](CO[C@@H]7O[C@H](CO)[C@@H](O[C@@H]8O[C@@H](C)[C@H](O)[C@@H](O)[C@H]8O)[C@H](O)[C@H]7O)[C@@H](O)[C@H](O)[C@H]6O)CC[C@]45C)[C@]3(C)CO)OC[C@H](O)[C@@H]2O)[C@H](O)[C@H](O)[C@H]1O"
## Result 3.16

## Task Respond only with cell painting activity score recorded for CCN(CC)CCCC(C)Nc1ccnc2cc(Cl)ccc12 (stereo not given)
## Result 4.43

## Task Respond only with cell painting activity score recorded for "C#CC[C@H](c1nc2cc(Cl)ccc2c(=O)n1Nc1ccccc1)N(CCCN)C(=O)c1cccc(Cl)c1F"
## Result 10.3

----------
Tested on: U-2 OS
experimental protocol: relative cell count vs DMSO (cell painting) (fraction of DMSO control); higher = more cells remaining (less cytotoxic)
setup conditions: 1.25 µM; 24 h
Note to self: values exactly at 0.7 are Y. So relative cell count at or above 0.7 is Y, below is N.

## Task Please check the record "CN1C(=O)[C@@]23C[C@]4([C@]56C[C@@]78SS[C@@](CO)(C(=O)N7[C@H]5Nc5ccccc56)N(C)C8=O)c5ccccc5N[C@@H]4N2C(=O)[C@]1(CO)SS3" and state if its relative cell count is at or above 0.7.
## Result N

## Task Please check the record "c1ccc(-c2noc(NC3CCCC3)n2)cc1" and state if its relative cell count is at or above 0.7.
## Result Y

## Task Please check the record "COc1cc(/C=C/c2cc(/C=C/c3ccc(O)c(OC)c3)n(-c3ccc(C(=O)[O-])cc3)n2)ccc1O.[Na+]" and state if its relative cell count is at or above 0.7.
## Result Y

## Task Please check the record "Cc1nc(Nc2ncc(C(=O)Nc3c(C)cccc3Cl)s2)cc(N2CCN(CCO)CC2)n1" and state if its relative cell count is at or above 0.7.
## Result Y

----------
Tested on: U-2 OS
experimental protocol: relative cell count vs DMSO (cell painting) (fraction of DMSO control); higher = more cells remaining (less cytotoxic)
setup conditions: 5 µM; 24 h
reported metric: relative cell count

The following compounds have reported results that may help.
compound	tested system	relative cell count
Oc1cc(O)cc(/C=C/c2ccc(O)c(O)c2)c1	U-2 OS	0.951
O=C(CCCCCCC(=O)Nc1ccccc1)NO	U-2 OS	0.776
O=C1CCC(=O)N1c1ccc(O)cc1	U-2 OS	0.904
Nc1ccn([C@@H]2O[C@H](CO)[C@@H](O)C2(F)F)c(=O)n1	U-2 OS	0.581
O=C1C(NCCN2CCOCC2)=C(Cl)C(=O)c2ncccc21	U-2 OS	0.0808

## Task Respond only with relative cell count recorded for "C[C@@]12C(=O)OC(=O)[C@]1(C)[C@H]1CC[C@@H]2O1"
## Result 0.887

## Task Respond only with relative cell count recorded for "O=C(OC[C@H]1O[C@@H](OC(=O)c2cc(O)c(O)c(OC(=O)c3cc(O)c(O)c(O)c3)c2)[C@H](OC(=O)c2cc(O)c(O)c(OC(=O)c3cc(O)c(O)c(O)c3)c2)[C@@H](OC(=O)c2cc(O)c(O)c(OC(=O)c3cc(O)c(O)c(O)c3)c2)[C@@H]1OC(=O)c1cc(O)c(O)c(OC(=O)c2cc(O)c(O)c(O)c2)c1)c1cc(O)c(O)c(OC(=O)c2cc(O)c(O)c(O)c2)c1"
## Result 0.945

----------
System: U-2 OS
experimental protocol: cell viability (CellTiter-Glo) relative to DMSO (% of control); higher = more viable
setup conditions: 40 µM; 24 h
We label by threshold. Values of cell viability strictly beneath 40 are MET. Values of 40 and up are NOT MET.

Check out these entries, answers already filled in.
smi	cat
CC(C)([C@](C1=O)(C2=O)C/C=C(C)\C)[C@@H](C[C@]31C[C@@H](C(C)(OC3=C2C(C4=CC(O)=C(C=C4)O)=O)C)C/C=C(C)\C)C/C=C(C)\C	MET
CCCCCCCCCCCCCCCc1cccc(O)c1C(=O)O	NOT MET
CCCCCCCc1ccc(CCc2cccc(O)c2C(=O)O)cc1	NOT MET

Continue with the compound presented below.
## Task is_below(cell viability, 40) for "C=C(C)[C@@H](CC=C(C)C)C[C@@]12C[C@@H](CC=C(C)C)C(C)(C)[C@@](CC=C(C)C)(C(=O)/C(=C(\O)c3ccc(O)c(O)c3)C1=O)C2=O" ?
## Result NOT MET
